- Test system: KCl contraction in rat arteries (thoracic aorta)
- EXPERIMENT_DESCRIPTION: Action easing KCl contraction in rat arteries (thoracic aorta ring)
- CONDITION_SUMMARY: read-out: IC50 value (50% inhibitory concentration of hypercalcemic contraction), Test Example 8, Table 8
pIC50: −log10 of the molar value.
Hi, to clarify the labels: 1 covers pIC50 from 5 upward, 0 covers anything below 5.

Hi team, for COC(=O)C1=C(C)NC(C)=C(C(=O)OCCN(C)Cc2ccccc2)C1c1cccc([N+](=O)[O-])c1 (centres unmarked) [Nicardipine, nicardipine, reference compound] , is the recorded pIC50 at or above 5? 1

For this molecule, is measured pIC50 5 or higher? CCC(CC)C1C(C(=O)OCCCc2cccnc2)=C(C)NC(C)=C1C(=O)OCCCc1cccnc1 1

Say whether CC1=C(C(=O)OCCCc2cccnc2)C(C(C)C)C(C(=O)OCc2ccncc2)=C(C)N1 (centres unmarked) shows pIC50 of 5 or more. 1

Decide: pIC50 of CCCCCCCCC1C(C(=O)OCCCc2cccnc2)=C(C)NC(C)=C1C(=O)OCCCc1cccnc1 >= 5? 0

Answer whether pIC50 of CC1=C(C(=O)OCCCc2cccnc2)C(CC2CCCC(C)(C)C2)C(C(=O)OCCCc2cccnc2)=C(C)N1 (centres unmarked) is greater than or equal to 5. 1

Check if pIC50 >= 5 (inclusive). Item: CC1=C(C(=O)OCCCc2cccnc2)C(CC(C)CC(C)(C)C)C(C(=O)OCCCc2cccnc2)=C(C)N1 (centres unmarked) 0

Say whether COC(=O)C1=C(C)NC(C)=C(C(=O)OCCCc2cccnc2)C1C(C)C (centres unmarked) shows pIC50 of 5 or more. 1
